Tested on: SEM cells
Assay: selective drug sensitivity score (sDSS, relative to normal bone marrow) (sDSS (score)); higher = more potent and effective on the cell line relative to normal bone marrow cells;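 also: ALL cell lines in 384-well plates, five doses spanning 10,000-fold, each plate scaled between vehicle and 100 µmol/L benzalkonium chloride controls, sDSS an adapted area-under-curve metric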
Conditions: 72 h
Listed here: items and their measured selective drug sensitivity score.
property: selective drug sensitivity score

CC(C)(O)CNc1nc(Nc2ccnc(C(F)(F)F)c2)nc(-c2cccc(C(F)(F)F)n2)n1 [Enasidenib] (top concentration 10000 nM) = 2.3
C[C@]12C=CC(=O)C=C1CC[C@@H]1[C@@H]2[C@@H](O)C[C@@]2(C)[C@H]1CC[C@]2(O)C(=O)CO [Prednisolone] (top concentration 10000 nM) = 2.9
O=C(c1ccc(F)c(F)c1Nc1ccc(I)cc1F)N1CC(O)([C@@H]2CCCCN2)C1 [Cobimetinib] (top concentration 1000 nM) = -2.48

----------
Tested on: COG-LL-317
Assay: selective drug sensitivity score (sDSS, relative to normal bone marrow) (sDSS (score)); higher = more potent and effective on the cell line relative to normal bone marrow cells
Conditions: 72 h
property: selective drug sensitivity score

CCNCCS(=O)(=O)NC[C@@]1(c2ccccc2)SC(NC(=O)C(C)(C)C)=NN1C(=O)C(C)(C)C [Litronesib] (top concentration 1000 nM) = 19.5
CNC(=O)c1cc(COc2nnc(Nc3ccc(Cl)cc3)c3ccoc23)ccn1 [Telatinib] (top concentration 10000 nM) = 0
CNS(=O)(=O)Nc1nccc(Cc2c(C)c3ccc(Oc4ncccn4)cc3oc2=O)c1F (top concentration 1000 nM) = -1.08

----------
Test system: SEM cells
Test: selective drug sensitivity score (sDSS, relative to normal bone marrow) (sDSS (score)); higher = more potent and effective on the cell line relative to normal bone marrow cells
Settings: 72 h
Classify as follows. Reported selective drug sensitivity score greater than or equal to 2: yes. Reported selective drug sensitivity score below: no.

O=C(O)c1ccc(O)c2ncccc12 [IOX-1] (top concentration 100000 nM) = no
CC[C@]1(O)C[C@H]2CN(CCc3c([nH]c4ccccc34)[C@@](C(=O)OC)(c3cc4c(cc3OC)N(C=O)[C@H]3[C@@](O)(C(=O)OC)[C@H](OC(C)=O)[C@]5(CC)C=CCN6CC[C@]43[C@@H]65)C2)C1 [Vincristine] (top concentration 1000 nM) = yes
C[C@@H](Oc1cc(-n2cnc3ccc(CN4CCN(C)CC4)cc32)sc1C(N)=O)c1ccccc1C(F)(F)F (top concentration 10000 nM) = yes
CN1CCN(c2ccc(C(=O)Nc3n[nH]c4ccc(Cc5cc(F)cc(F)c5)cc34)c(NC3CCOCC3)c2)CC1 [Entrectinib] (top concentration 1000 nM) = yes
Nc1nccc(-c2c(-c3ccc(F)cc3)ncn2C2CCCCC2)n1 (top concentration 10000 nM) = no
CS(=O)(=O)c1ccc(-c2cnc(N)c(C(=O)Nc3ccccc3)n2)cc1 [VE-821] (top concentration 10000 nM) = yes
CC(=O)OC[C@H]1O[C@@H]([S-])[C@H](OC(C)=O)[C@@H](OC(C)=O)[C@@H]1OC(C)=O.CCP(CC)CC.[Au+] [Auranofin] (top concentration 2500 nM) = no
O=C(/C=C/c1cccnc1)NCCCCC1CCN(C(=O)c2ccccc2)CC1 [Daporinad] (top concentration 1000 nM) = yes
COc1nc(N)nc2c1ncn2[C@@H]1O[C@H](CO)[C@@H](O)[C@@H]1O [Nelarabine] (top concentration 10000 nM) = no
O=C(Nc1ccc(OC(F)(F)Cl)cc1)c1cnc(N2CC[C@@H](O)C2)c(-c2cc[nH]n2)c1 [Asciminib] (top concentration 1000 nM) = yes
Cc1ccc(Nc2nccc(N(C)c3ccc4c(C)n(C)nc4c3)n2)cc1S(N)(=O)=O [Pazopanib] (top concentration 10000 nM) = yes
C[C@H]1Oc2cc(cnc2N)-c2c(nn(C)c2C#N)CN(C)C(=O)c2ccc(F)cc21 (top concentration 1000 nM) = no

----------
Listed here: items and their measured selective drug sensitivity score.
System: TMD5
Assay: selective drug sensitivity score (sDSS, relative to normal bone marrow) (sDSS (score)); higher = more potent and effective on the cell line relative to normal bone marrow cells
Details: 72 h
property: selective drug sensitivity score

CN(C)C/C=C/C(=O)Nc1cc2c(Nc3ccc(F)c(Cl)c3)ncnc2cc1O[C@H]1CCOC1 [Afatinib] (top concentration 1000 nM) = 3.56
CC(C)N(C[C@H]1O[C@@H](n2cnc3c(N)ncnc32)[C@H](O)[C@@H]1O)[C@H]1C[C@@H](CCc2nc3cc(C(C)(C)C)ccc3[nH]2)C1 [Pinometostat] (top concentration 1000 nM) = 0
Cc1cc(Nc2cc(N3CCN(C)CC3)nc(/C=C/c3ccccc3)n2)n[nH]1 [ENMD-2076] (top concentration 10000 nM) = -0.26

----------
Tested on: PEER
Assay: selective drug sensitivity score (sDSS, relative to normal bone marrow) (sDSS (score)); higher = more potent and effective on the cell line relative to normal bone marrow cells
Conditions: 72 h
property: selective drug sensitivity score

Cc1sc2c(c1C)C(c1ccc(Cl)cc1)=N[C@@H](CC(=O)Nc1ccc(OCCOCCOCCOCCNc3cccc4c3C(=O)N(C3CCC(=O)NC3=O)C4=O)cc1)c1nnc(C)n1-2 (stereo partly specified) [ARV-825] (top concentration 300 nM) = -0.46
CN1CCN(CCOc2cc(OC3CCOCC3)c3c(Nc4c(Cl)ccc5c4OCO5)ncnc3c2)CC1 [Saracatinib] (top concentration 10000 nM) = 7.38
CNC(=O)c1cc(Oc2ccc(NC(=O)Nc3ccc(Cl)c(C(F)(F)F)c3)c(F)c2)ccn1 [Regorafenib] (top concentration 10000 nM) = 7.64
Cc1ccc(Nc2nccc(N(C)c3ccc4c(C)n(C)nc4c3)n2)cc1S(N)(=O)=O [Pazopanib] (top concentration 10000 nM) = 2.84
CNC(=O)c1ccc(N2C(=S)N(c3ccc(C#N)c(C(F)(F)F)c3)C(=O)C2(C)C)cc1F [Enzalutamide] (top concentration 10000 nM) = 0.48
Cn1cc(-c2cnn3c(N)c(Br)c([C@@H]4CCCNC4)nc23)cn1 [MK-8776] (top concentration 2500 nM) = -0.26

----------
Tested on: MHH-CALL-2
Test: selective drug sensitivity score (sDSS, relative to normal bone marrow) (sDSS (score)); higher = more potent and effective on the cell line relative to normal bone marrow cells
Conditions: 72 h
property: selective drug sensitivity score

CC(=O)c1cnc2ccc(-c3cc(Cl)c(O)c(Cl)c3)nc2c1N[C@H]1CC[C@H](CN(C)C)CC1 [OTS167] (top concentration 1000 nM) = 3.18
CC[C@H](NC(=O)[C@H](C)NC)C(=O)N1C[C@@H](O)C[C@H]1Cc1c(-c2[nH]c3cc(F)ccc3c2C[C@@H]2C[C@H](O)CN2C(=O)[C@H](CC)NC(=O)[C@H](C)NC)[nH]c2cc(F)ccc12 [Birinapant] (top concentration 1000 nM) = 8.7
COc1ncc(-c2ccc3nccc(-c4ccnnc4)c3c2)cc1NS(=O)(=O)c1ccc(F)cc1F [Omipalisib] (top concentration 1000 nM) = 11
O=C(O)c1ccc(O)c2ncccc12 [IOX-1] (top concentration 100000 nM) = 3.64
COC(=O)C[C@](O)(CCCC(C)(C)O)C(=O)O[C@@H]1C(OC)=C[C@]23CCCN2CCc2cc4c(cc2[C@H]13)OCO4 [Omacetaxine] (top concentration 10000 nM) = 3.82
CC/C(=C(\c1ccc(O)cc1)c1ccc(OCCN(C)C)cc1)c1ccccc1 [4-hydroxytamoxifen] (top concentration 10000 nM) = 2.12
C[C@H]1Oc2cc(cnc2N)-c2c(nn(C)c2C#N)CN(C)C(=O)c2ccc(F)cc21 (top concentration 1000 nM) = -0.72
CC(C)NC[C@@H](C(=O)N1CCN(c2ncnc3c2[C@H](C)C[C@H]3O)CC1)c1ccc(Cl)cc1 [Ipatasertib] (top concentration 10000 nM) = 4.7
CC[C@@H]1C(=O)N(C)c2cnc(Nc3ccc(C(=O)NC4CCN(C)CC4)cc3OC)nc2N1C1CCCC1 [BI-2536] (top concentration 1000 nM) = 16.2
O=C(NC[C@H](O)CN1CCc2ccccc2C1)c1cc(NC2COC2)ncn1 (top concentration 10000 nM) = 0.04
CCN(CC)CCCC(C)Nc1c2ccc(Cl)cc2nc2ccc(OC)cc12 (configuration not stated) [Mepacrine] (top concentration 50000 nM) = -5.6
Cc1cnc(-c2ccccc2C(C)C)nc1NCc1ccc(-n2ccnn2)cc1 [ML323] (top concentration 10000 nM) = 0.24

----------
Listed here: items and their measured selective drug sensitivity score.
System: RCH-ACV
Experiment: selective drug sensitivity score (sDSS, relative to normal bone marrow) (sDSS (score)); higher = more potent and effective on the cell line relative to normal bone marrow cells
Details: 72 h
property: selective drug sensitivity score

CC(C)(O)CNc1nc(Nc2ccnc(C(F)(F)F)c2)nc(-c2cccc(C(F)(F)F)n2)n1 [Enasidenib] (top concentration 10000 nM) = 2.2
Cn1cc(-c2cnn3c(N)c(Br)c([C@@H]4CCCNC4)nc23)cn1 [MK-8776] (top concentration 2500 nM) = 3.94
COc1cc2c(NC3CCN(C(C)C)CC3)nc(N3CCC(F)(F)CC3)nc2cc1OCCCN1CCCC1 [UNC0642] (top concentration 10000 nM) = 2.56
C[C@@H](Oc1cc(-n2cnc3ccc(CN4CCN(C)CC4)cc32)sc1C(N)=O)c1ccccc1C(F)(F)F (top concentration 10000 nM) = 20.9
O=C(O)c1ccc(-c2c[nH]c3ncc(-c4ccccc4)cc23)cc1C1CCCC1 (top concentration 10000 nM) = 5.76
Cc1c(N)nc([C@H](CC(N)=O)NC[C@H](N)C(N)=O)nc1C(=O)N[C@H](C(=O)N[C@H](C)[C@@H](O)[C@H](C)C(=O)N[C@H](C(=O)NCCc1nc(-c2nc(C(=O)NCCC[S+](C)C)cs2)cs1)[C@@H](C)O)[C@@H](O[C@@H]1O[C@@H](CO)[C@@H](O)[C@H](O)[C@@H]1O[C@H]1O[C@H](CO)[C@@H](O)[C@H](OC(N)=O)[C@@H]1O)c1c[nH]cn1 [Bleomycin] (top concentration 10000 nM) = 7.54
